Measured IC50 by item
# MEASURED TARGET: PI3 Kinase (p110β/p86α) (h) (Homo sapiens, UniProt P42338)
# Construct: endogenous in cells
# Sequence (P42338 whole entry): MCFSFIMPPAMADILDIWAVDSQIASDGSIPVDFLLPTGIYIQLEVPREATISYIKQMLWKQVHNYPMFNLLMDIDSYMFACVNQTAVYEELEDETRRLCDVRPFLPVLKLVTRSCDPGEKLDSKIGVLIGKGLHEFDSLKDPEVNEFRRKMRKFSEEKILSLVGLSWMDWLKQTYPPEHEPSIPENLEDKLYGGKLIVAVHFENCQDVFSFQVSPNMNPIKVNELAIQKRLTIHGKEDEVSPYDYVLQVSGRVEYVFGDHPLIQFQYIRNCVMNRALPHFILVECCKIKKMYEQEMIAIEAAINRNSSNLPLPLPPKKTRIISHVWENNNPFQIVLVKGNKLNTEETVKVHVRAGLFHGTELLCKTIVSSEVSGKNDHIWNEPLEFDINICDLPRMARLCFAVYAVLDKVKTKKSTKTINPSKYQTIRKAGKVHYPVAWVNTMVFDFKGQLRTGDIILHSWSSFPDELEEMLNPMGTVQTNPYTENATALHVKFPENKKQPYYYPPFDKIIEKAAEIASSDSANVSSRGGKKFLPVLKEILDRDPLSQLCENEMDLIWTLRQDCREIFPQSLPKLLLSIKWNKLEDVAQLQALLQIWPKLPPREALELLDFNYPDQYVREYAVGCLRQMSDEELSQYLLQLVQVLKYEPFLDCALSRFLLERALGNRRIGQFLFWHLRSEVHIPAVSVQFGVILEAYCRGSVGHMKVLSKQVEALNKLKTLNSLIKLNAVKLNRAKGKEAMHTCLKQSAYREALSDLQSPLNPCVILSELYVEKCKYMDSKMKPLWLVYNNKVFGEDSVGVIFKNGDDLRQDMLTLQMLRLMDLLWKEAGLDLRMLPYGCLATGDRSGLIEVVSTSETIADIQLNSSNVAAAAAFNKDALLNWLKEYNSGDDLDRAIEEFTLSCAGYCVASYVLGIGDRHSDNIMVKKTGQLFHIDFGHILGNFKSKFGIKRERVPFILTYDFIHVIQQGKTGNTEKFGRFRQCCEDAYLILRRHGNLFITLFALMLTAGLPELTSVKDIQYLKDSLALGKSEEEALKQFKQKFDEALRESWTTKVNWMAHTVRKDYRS
# Sequence (P27986 whole entry partner): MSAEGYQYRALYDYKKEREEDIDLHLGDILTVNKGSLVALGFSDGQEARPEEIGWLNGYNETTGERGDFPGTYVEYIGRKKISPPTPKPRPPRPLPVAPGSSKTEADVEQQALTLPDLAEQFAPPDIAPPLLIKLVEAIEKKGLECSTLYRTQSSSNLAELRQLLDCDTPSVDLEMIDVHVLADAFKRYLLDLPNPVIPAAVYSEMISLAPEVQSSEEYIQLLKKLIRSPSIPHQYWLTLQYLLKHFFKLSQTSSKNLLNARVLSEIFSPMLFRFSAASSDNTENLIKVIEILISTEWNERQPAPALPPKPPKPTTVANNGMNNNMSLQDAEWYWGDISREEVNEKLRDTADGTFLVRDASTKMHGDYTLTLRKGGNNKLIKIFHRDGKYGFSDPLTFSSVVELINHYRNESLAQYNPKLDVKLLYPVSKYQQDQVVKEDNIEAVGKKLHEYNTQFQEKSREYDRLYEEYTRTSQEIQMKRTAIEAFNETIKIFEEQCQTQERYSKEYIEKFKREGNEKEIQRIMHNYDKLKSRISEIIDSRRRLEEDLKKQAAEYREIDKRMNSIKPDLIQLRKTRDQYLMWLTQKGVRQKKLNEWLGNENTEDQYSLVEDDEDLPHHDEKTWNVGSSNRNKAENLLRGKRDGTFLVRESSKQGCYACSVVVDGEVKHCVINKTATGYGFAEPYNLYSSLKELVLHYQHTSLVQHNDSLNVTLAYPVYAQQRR
# ASSAY PROTOCOL: Inhibition of phosphatidylinositol 3-kinase beta (PI3K β), pAkt Western blotting in LPA-stimulated PC3 cells
# CONDITION NOTES: ATP=10 uM, sample concentration=100 nM

ITEM SMILES: C[C@H](Nc1ncnc2c1C(=O)CCN2)c1c(Cl)c2cccc(Cl)c2c(=O)n1-c1ccccc1
IC50: 10 to 500 nM
--
ITEM SMILES: Cc1c[nH]c2nc(N)nc(N[C@@H](C)c3cc4cccc(Cl)c4c(=O)n3-c3ccccc3)c2c1=O
IC50: 10 to 500 nM
--
ITEM SMILES: CCN1CNc2ncnc(N[C@@H](C)c3cc4cccc(Cl)c4c(=O)n3-c3ccccc3)c2C1=O
IC50: > 500 nM
--
ITEM SMILES: C[C@H](Nc1ncnc2[nH]ccc(=O)c12)c1c(F)c2cccc(Cl)c2c(=O)n1-c1ccccc1
IC50: > 500 nM
--
ITEM SMILES: C[C@H](Nc1ncnc2c1C(=O)N(C1CC1)CN2)c1cc2cccc(Cl)c2c(=O)n1-c1ccccc1
IC50: > 500 nM

---

Measured pIC50 by item
# MEASURED TARGET: PI3 Kinase (p110δ/p85α) (h) (Homo sapiens, UniProt O00329)
# Construct: endogenous in cells
# Sequence (O00329 whole entry): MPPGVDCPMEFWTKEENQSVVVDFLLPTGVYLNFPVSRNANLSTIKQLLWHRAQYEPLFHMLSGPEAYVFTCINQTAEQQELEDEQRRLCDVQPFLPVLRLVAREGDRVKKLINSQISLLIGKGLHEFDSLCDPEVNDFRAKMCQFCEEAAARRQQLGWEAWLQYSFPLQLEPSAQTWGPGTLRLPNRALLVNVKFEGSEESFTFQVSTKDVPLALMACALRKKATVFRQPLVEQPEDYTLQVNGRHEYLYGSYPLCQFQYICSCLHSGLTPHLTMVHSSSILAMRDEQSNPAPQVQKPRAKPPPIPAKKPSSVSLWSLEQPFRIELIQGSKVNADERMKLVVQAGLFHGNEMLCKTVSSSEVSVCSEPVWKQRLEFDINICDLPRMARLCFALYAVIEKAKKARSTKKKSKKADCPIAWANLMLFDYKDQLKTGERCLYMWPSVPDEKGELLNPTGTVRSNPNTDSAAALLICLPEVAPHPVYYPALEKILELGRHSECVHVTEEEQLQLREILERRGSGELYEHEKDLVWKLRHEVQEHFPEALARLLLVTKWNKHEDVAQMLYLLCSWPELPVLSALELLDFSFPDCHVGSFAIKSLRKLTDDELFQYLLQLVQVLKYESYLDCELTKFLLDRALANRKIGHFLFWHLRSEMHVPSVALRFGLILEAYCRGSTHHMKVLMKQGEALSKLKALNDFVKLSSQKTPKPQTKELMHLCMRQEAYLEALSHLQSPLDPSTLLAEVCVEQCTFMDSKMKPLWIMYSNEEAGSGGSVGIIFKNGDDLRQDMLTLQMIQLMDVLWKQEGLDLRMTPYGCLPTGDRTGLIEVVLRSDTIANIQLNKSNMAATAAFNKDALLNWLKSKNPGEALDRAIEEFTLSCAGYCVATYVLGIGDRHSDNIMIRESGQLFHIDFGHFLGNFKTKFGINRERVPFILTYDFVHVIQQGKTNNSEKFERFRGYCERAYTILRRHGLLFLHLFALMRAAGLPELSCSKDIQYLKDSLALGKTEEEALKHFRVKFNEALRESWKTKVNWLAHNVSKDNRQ
# Sequence (P27986 whole entry partner): as the sequence (P27986 whole entry partner) above
# ASSAY PROTOCOL: Inhibition of phosphatidylinositol 3-kinase delta (PI3K δ), pAkt Western blotting in IgM-stimulated Raji cells
# CONDITION NOTES: ATP=10 uM, sample concentration=100 nM
pIC50: −log10 of the molar value.

MOLECULE: C[C@H](Nc1ncnc2c1C(=O)N(C)CN2)c1nc2cccc(Cl)c2c(=O)n1-c1cccnc1
pIC50: 6.30 to 8.00
//
MOLECULE: C[C@H](Nc1ncnc2c1C(=O)N(C1CCCC1)CN2)c1cc2cccc(Cl)c2c(=O)n1-c1ccccc1
pIC50: < 6.30
//
MOLECULE: CC(Nc1ncnc2[nH]ccc(=O)c12)c1nc2ccc(F)cc2c(-c2ccccn2)c1-c1ccccn1 (stereo not shown)
pIC50: 6.30 to 8.00
//
MOLECULE: Cc1cccc(-n2c([C@@H]3CCCN3c3nc(N)nc4c3C(=O)N(C)CN4)nc3cccc(Cl)c3c2=O)c1
pIC50: < 6.30

---

Measured pIC50 by item
# MEASURED TARGET: PI3 Kinase (p110δ/p85α) (h) (Homo sapiens, UniProt O00329)
# Construct: endogenous in cells
# ASSAY PROTOCOL: Inhibition of phosphatidylinositol 3-kinase delta (PI3K δ), pAkt Western blotting in IgM-stimulated Raji cells
# CONDITION NOTES: ATP=10 uM, sample concentration=100 nM
pIC50: −log10 of the molar value.

COMPOUND: C[C@H](Nc1ncnc2[nH]ccc(=O)c12)c1nc2ccc(F)cc2cc1-c1ccccn1 [Example 7-1]
pIC50: 6.30 to 8.00
//
COMPOUND: CN1CNc2nc(N)nc(N3CCC[C@H]3c3cc4cccc(Cl)c4c(=O)n3-c3ccccc3)c2C1=O [Example 59]
pIC50: < 6.30
//
COMPOUND: C[C@H](Nc1ncnc2[nH]cnc(=O)c12)c1nc2cccc(Cl)c2c(=O)n1-c1ccccc1 [Example 66]
pIC50: 6.30 to 8.00
//
COMPOUND: C[C@H](Nc1ncnc2[nH]ccc(=O)c12)c1nc2cccc(Cl)c2c(=O)n1Cc1ccccc1Cl [Example 31]
pIC50: 6.30 to 8.00
//
COMPOUND: C[C@H](Nc1ncnc2[nH]ccc(=O)c12)c1cc2ccc(F)cc2nc1-c1cccc(F)c1 [Example 8]
pIC50: > 8.00
//
COMPOUND: O=c1nc[nH]c2ncnc(N3CCC[C@H]3c3nc4cccc(Cl)c4c(=O)n3-c3cccc(F)c3)c12 [Example 77]
pIC50: < 6.30
//
COMPOUND: C[C@H](Nc1nc(N)nc2c1C(=O)N(C)CN2)c1nc2cccc(Cl)c2c(=O)n1-c1cccc(F)c1 [Example 50]
pIC50: > 8.00
//
COMPOUND: C[C@H](Nc1ncnc2[nH]ccc(=O)c12)c1nc2cccc(Cl)c2c(=O)n1-c1cc(F)cc(F)c1 [Example 4]
pIC50: > 8.00
//
COMPOUND: CCN1CNc2ncnc(N[C@@H](C)c3cc4cccc(Cl)c4c(=O)n3-c3ccccc3)c2C1=O [Example 60]
pIC50: 6.30 to 8.00
//
COMPOUND: CC[C@H](Nc1nc(N)nc2c1C(=O)N(C)CN2)c1nc2cccc(F)c2c(=O)n1-c1ccccc1 [Example 54]
pIC50: 6.30 to 8.00
//
COMPOUND: Nc1nc(N2CCC[C@H]2c2nc3cccc(Cl)c3c(=O)n2-c2cccc(F)c2)c2c(=O)nc[nH]c2n1 [Example 92]
pIC50: < 6.30
//
COMPOUND: C[C@H](Nc1ncnc2[nH]ccc(=O)c12)c1cc2ccccc2nc1-c1ccccc1 [Example 6]
pIC50: > 8.00
//
COMPOUND: CN1CNc2ncnc(N3CCC[C@H]3c3nn4ccc(Cl)c4c(=O)n3-c3ccccc3)c2C1=O [Example 47]
pIC50: 6.30 to 8.00
//
COMPOUND: O=c1nc[nH]c2ncnc(N3CCC[C@H]3c3cc4cccc(Cl)c4c(=O)n3-c3cccnc3)c12 [Example 75]
pIC50: 6.30 to 8.00
//
COMPOUND: C[C@H](Nc1nc(N)nc2c1C(=O)N(C)CN2)c1nc2cccc(Cl)c2c(=O)n1-c1cccnc1 [Example 49]
pIC50: > 8.00
//
COMPOUND: C[C@H](Nc1nc(N)nc2[nH]ccc(=O)c12)c1nc2ccc(F)cc2cc1-c1ccccn1 [Example 25]
pIC50: > 8.00
//
COMPOUND: C[C@H](Nc1ncnc2[nH]ccc(=O)c12)c1nc2cccc(Cl)c2c(=O)n1-c1ccccn1 [Example 3]
pIC50: > 8.00
//
COMPOUND: C[C@H](Nc1ncnc2[nH]cc(F)c(=O)c12)c1nc2cccc(Cl)c2c(=O)n1-c1ccccc1 [Example 21]
pIC50: > 8.00
//
COMPOUND: C[C@H](Nc1ncnc2[nH]cnc(=O)c12)c1nn2ccc(Cl)c2c(=O)n1-c1ccccc1 [Example 71]
pIC50: 6.30 to 8.00
//
COMPOUND: C[C@H](Nc1ncnc2[nH]ccc(=O)c12)c1nc2cccc(Cl)c2c(=O)n1-c1cccnc1 [Example 2]
pIC50: > 8.00

---

# MEASURED TARGET: PI3 Kinase (p120γ) (h) (Homo sapiens)
# Construct: endogenous in cells
# Sequence (P48736 whole entry): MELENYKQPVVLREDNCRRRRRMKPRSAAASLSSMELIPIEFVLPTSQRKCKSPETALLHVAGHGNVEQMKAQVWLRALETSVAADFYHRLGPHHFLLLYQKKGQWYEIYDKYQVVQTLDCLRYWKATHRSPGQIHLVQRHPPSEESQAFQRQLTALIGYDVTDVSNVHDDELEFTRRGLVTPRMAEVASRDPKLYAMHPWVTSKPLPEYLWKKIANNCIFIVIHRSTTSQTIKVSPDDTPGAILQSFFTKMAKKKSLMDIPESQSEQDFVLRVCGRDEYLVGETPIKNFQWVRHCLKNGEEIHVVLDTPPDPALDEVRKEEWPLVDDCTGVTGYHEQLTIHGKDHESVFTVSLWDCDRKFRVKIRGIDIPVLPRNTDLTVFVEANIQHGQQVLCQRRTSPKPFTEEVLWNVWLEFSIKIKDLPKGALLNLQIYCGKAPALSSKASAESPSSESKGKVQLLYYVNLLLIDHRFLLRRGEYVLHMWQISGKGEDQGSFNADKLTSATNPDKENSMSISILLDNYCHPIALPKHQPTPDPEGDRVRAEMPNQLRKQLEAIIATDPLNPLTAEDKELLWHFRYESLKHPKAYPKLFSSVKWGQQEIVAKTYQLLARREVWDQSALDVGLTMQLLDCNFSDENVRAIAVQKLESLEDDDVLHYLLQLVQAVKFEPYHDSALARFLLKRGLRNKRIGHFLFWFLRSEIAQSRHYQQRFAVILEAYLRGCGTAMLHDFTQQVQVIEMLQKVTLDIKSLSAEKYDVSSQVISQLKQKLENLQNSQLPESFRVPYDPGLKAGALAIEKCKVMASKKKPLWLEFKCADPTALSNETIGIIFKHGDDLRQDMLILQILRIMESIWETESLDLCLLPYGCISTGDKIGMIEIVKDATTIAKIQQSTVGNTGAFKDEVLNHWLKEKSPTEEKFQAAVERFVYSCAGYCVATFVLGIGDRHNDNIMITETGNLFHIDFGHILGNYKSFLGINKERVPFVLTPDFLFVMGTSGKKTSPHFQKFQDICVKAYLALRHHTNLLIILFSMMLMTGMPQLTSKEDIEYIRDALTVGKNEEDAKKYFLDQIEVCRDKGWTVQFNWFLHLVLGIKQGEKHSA
# ASSAY PROTOCOL: Inhibition of phosphatidylinositol 3-kinase gamma (PI3K γ), pAkt Western blotting in C5a-stimulated RAW264.7 macrophages
# CONDITION NOTES: ATP=10 uM, sample concentration=100 nM
Measured IC50 by item

COMPOUND: C[C@H](Nc1ncnc2[nH]ccc(=O)c12)c1nc2ccc(F)cc2c(=O)n1-c1ccccc1 [Example 29]
IC50: 10 to 500 nM
--
COMPOUND: C[C@H](Nc1ncnc2c1C(=O)N(C)CN2)c1cc2ccccc2nc1-c1ccccc1 [Example 39-1]
IC50: < 10 nM
--
COMPOUND: C[C@H](Nc1ncnc2[nH]ccc(=O)c12)c1c(Cl)c2cccc(Cl)c2c(=O)n1-c1ccccc1 [Example 10]
IC50: 10 to 500 nM
--
COMPOUND: C[C@H](Nc1nc(N)nc2[nH]cnc(=O)c12)c1cc2ccccc2nc1-c1ccccc1 [Example 88]
IC50: 10 to 500 nM
--
COMPOUND: Cc1cccc(-n2c([C@H](C)Nc3nc(N)nc4c3C(=O)N(C)CN4)nc3cccc(Cl)c3c2=O)c1 [Example 51]
IC50: 10 to 500 nM
--
COMPOUND: Cc1cccc(-n2c([C@H](C)Nc3ncnc4[nH]cnc(=O)c34)nc3cccc(Cl)c3c2=O)c1 [Example 69]
IC50: > 500 nM
--
COMPOUND: C[C@H](Nc1ncnc2c1C(=O)N(C1CCCC1)CN2)c1cc2cccc(Cl)c2c(=O)n1-c1ccccc1 [Example 63]
IC50: > 500 nM

---

# MEASURED TARGET: PI3 Kinase (p110δ/p85α) (h) (Homo sapiens, UniProt O00329)
# Construct: endogenous in cells
# ASSAY PROTOCOL: Inhibition of phosphatidylinositol 3-kinase delta (PI3K δ), pAkt Western blotting in IgM-stimulated Raji cells
# CONDITION NOTES: ATP=10 uM, sample concentration=100 nM
ENDPOINT: IC50

ITEM SMILES: CC[C@H](Nc1ncnc2c1C(=O)N(C)CN2)c1nc2cccc(F)c2c(=O)n1-c1ccccc1
ENDPOINT: IC50
MEASURED VALUE: 10 to 500 nM

ITEM SMILES: Cc1cccc(-n2c([C@H](C)Nc3ncnc4[nH]cnc(=O)c34)nc3cccc(Cl)c3c2=O)c1
ENDPOINT: IC50
MEASURED VALUE: 10 to 500 nM

ITEM SMILES: CN1CNc2nc(N)nc(N3CCC[C@H]3c3nc4cccc(Cl)c4c(=O)n3-c3ccccc3)c2C1=O
ENDPOINT: IC50
MEASURED VALUE: 10 to 500 nM

ITEM SMILES: Cc1cccc(-n2c([C@@H]3CCCN3c3nc(N)nc4[nH]cnc(=O)c34)nc3cccc(Cl)c3c2=O)c1
ENDPOINT: IC50
MEASURED VALUE: > 500 nM

ITEM SMILES: C[C@H](Nc1ncnc2[nH]cc(C#N)c(=O)c12)c1cc2cccc(Cl)c2c(=O)n1-c1ccccc1
ENDPOINT: IC50
MEASURED VALUE: > 500 nM

ITEM SMILES: C[C@H](Nc1ncnc2[nH]ccc(=O)c12)c1nc2ccc(F)cc2c(=O)n1Cc1ccccn1
ENDPOINT: IC50
MEASURED VALUE: > 500 nM

ITEM SMILES: C[C@H](Nc1ncnc2c1C(=O)N(C)CN2)c1nc2cccc(Cl)c2c(=O)n1-c1ccccc1
ENDPOINT: IC50
MEASURED VALUE: < 10 nM

ITEM SMILES: C[C@H](Nc1ncnc2[nH]cnc(=O)c12)c1nc2cccc(Cl)c2c(=O)n1-c1cccc(F)c1
ENDPOINT: IC50
MEASURED VALUE: > 500 nM

ITEM SMILES: C[C@H](Nc1nc(N)nc2[nH]ccc(=O)c12)c1cc2cccc(Cl)c2c(=O)n1-c1ccccc1
ENDPOINT: IC50
MEASURED VALUE: < 10 nM
